Attribute: fold change (FC)
System: Human immunodeficiency virus 1
Test: Antiviral activity against Human immunodeficiency virus 1 clone 14682 harboring 122E, 135V, Q145V, 200A mutation in reverse transcriptase by phenosense assay relative to wild type
Type: functional

# count of solved cases: 8
Exam item: GET /values?readout=fold change (FC)&item= Cc1cn([C@H]2C=C[C@@H](CO)O2)c(=O)[nH]c1=O
Marked response: 0.9

Exam item: Here is the next molecule: O=c1[nH]cnc2c1ncn2[C@H]1CC[C@@H](CO)O1
Marked response: 1

Exam item: Here is the next molecule: Cc1cn([C@H]2C[C@H](N=[N+]=[N-])[C@@H](CO)O2)c(=O)[nH]c1=O
Marked response: 0.8

Exam item: Here is the next molecule: Nc1nc(=O)n([C@@H]2CS[C@H](CO)O2)cc1F
Marked response: 0.5

Exam item: Here is the next molecule: Nc1nc(NC2CC2)c2ncn([C@H]3C=C[C@@H](CO)C3)c2n1
Marked response: 1.1

Exam item: Here is the next molecule: O=C1Nc2ccc(Cl)cc2[C@@](C#CC2CC2)(C(F)(F)F)O1
Marked response: 1.3

Exam item: Here is the next molecule: CC(C)Nc1cccnc1N1CCN(C(=O)c2cc3cc(NS(C)(=O)=O)ccc3[nH]2)CC1
Marked response: 0.9

Exam item: Here is the next molecule: Cc1ccnc2c1NC(=O)c1cccnc1N2C1CC1
Marked response: 0.5

Others:
Exam item: GET /values?readout=fold change (FC)&item= C[C@H](Cn1cnc2c(N)ncnc21)OCP(=O)(O)O [TENOFOVIR ANHYDROUS]
Marked response: 0.9

###

System: Human immunodeficiency virus 1
Experiment: Antiviral activity against Human immunodeficiency virus 1 clone 38086 harboring K49R, V60I, I135V, Q145M, Q174H, G196E, Q207E, R211K, V245K mutation in reverse transcriptase by phenosense assay relative to wild type
Format: functional
fold change (FC) strictly less than 0.9 = Met. Otherwise Not met.

Example entries begin here.
Exam item: Identify whether the compound CC(C)Nc1cccnc1N1CCN(C(=O)c2cc3cc(NS(C)(=O)=O)ccc3[nH]2)CC1 [DELAVIRDINE] records fold change (FC) below 0.9.
Marked response: Met

Exam item: Here is the next compound: Cc1ccnc2c1NC(=O)c1cccnc1N2C1CC1 [NEVIRAPINE]
Marked response: Not met

Exam item: Here is the next compound: Cc1cn([C@H]2C=C[C@@H](CO)O2)c(=O)[nH]c1=O [STAVUDINE]
Marked response: Not met

Exam item: Here is the next compound: O=C1Nc2ccc(Cl)cc2[C@@](C#CC2CC2)(C(F)(F)F)O1 [EFAVIRENZ]
Marked response: Not met

Others:
Exam item: Identify whether the compound O=c1[nH]cnc2c1ncn2[C@H]1CC[C@@H](CO)O1 [DIDANOSINE] records fold change (FC) below 0.9.
Marked response: Not met

Exam item: Here is the next compound: Nc1nc(=O)n([C@@H]2CS[C@H](CO)O2)cc1F [EMTRICITABINE]
Marked response: Not met

###

System: Human immunodeficiency virus 1
Experiment: Antiviral activity against Human immunodeficiency virus 1 clone 38086 harboring K49R, V60I, I135V, Q145M, Q174H, G196E, Q207E, R211K, V245K mutation in reverse transcriptase by phenosense assay relative to wild type
Format: functional
Property: fold change (FC)
Please give only the number in your answer, with no unit.

# count of solved cases: 2
Exam item: GET /values?readout=fold change (FC)&item= Cc1cn([C@H]2C[C@H](N=[N+]=[N-])[C@@H](CO)O2)c(=O)[nH]c1=O [ZIDOVUDINE]
Marked response: 0.9

Exam item: Here is the next compound: Nc1nc(NC2CC2)c2ncn([C@H]3C=C[C@@H](CO)C3)c2n1 [ABACAVIR]
Marked response: 0.9

Then there is this compound:
Exam item: GET /values?readout=fold change (FC)&item= C[C@H](Cn1cnc2c(N)ncnc21)OCP(=O)(O)O [TENOFOVIR ANHYDROUS]
Marked response: 0.9
